- assay.text: log P by HPLC on reversed-phase column (EEC Directive 79/831 Annex V.A8)
- Format: physicochemical
recorded.endpoint: logP
Reply: number alone, nothing else.

**Q:** I have this molecule here, CC(COc1ccc(Cl)cc1Cl)N(C(=O)c1c(C(F)F)nn(C)c1Cl)C1CC1 (centres unmarked) , and I need its recorded logP.
**A:** 4.41

**Q:** Also check Cn1nc(C(F)F)c(C(=O)N(C2CC2)C2CCCC2C2CCCC2)c1Cl (centres unmarked)
**A:** 4.83

**Q:** And what about the molecule CC(CCc1c(Cl)cccc1Cl)NC(=O)c1c(C(F)F)nn(C)c1F (centres unmarked) ?
**A:** 3.59

**Q:** And for Cn1nc(C(F)F)c(C(=O)N(CCOc2ccc(Cl)cc2)C2CCCC2)c1Cl ?
**A:** 4.32

**Q:** How about this molecule: CCCN(CCOc1ccc(Cl)cc1)C(=O)c1c(C(F)F)nn(C)c1F
**A:** 3.53

**Q:** And what about the molecule CON(C(=O)c1c(C(F)F)nn(C)c1Cl)C(C)CCc1c(Cl)cc(Cl)cc1Cl (centres unmarked) ?
**A:** 4.89

**Q:** Follow-up item: Cn1nc(C(F)F)c(C(=O)NCC#Cc2cc3ccccc3s2)c1F
**A:** 3.19
